In this section, each of the molecules is paired with its reported IC50.
Tested on: A549/TR
Assay: Cytotoxicity against human A549/TR cells after 48 hrs by MTT assay
Assay type: functional, cell-based

| item smiles | measured target | units label | IC50 |
| --- | --- | --- | --- |
| COc1ccc(/C=C/C(=O)c2cc(OC)c(OC)c(OC)c2)cc1OCC(=O)Nc1ccccc1Cl | A549/TR | µM | 6.25 |
| CC(=O)O[C@H]1C(=O)[C@@]2(C)[C@H]([C@H](OC(=O)c3ccccc3)[C@]3(O)C[C@H](OC(=O)[C@H](O)[C@@H](NC(=O)c4ccccc4)c4ccccc4)C(C)=C1C3(C)C)[C@]1(OC(C)=O)CO[C@@H]1C[C@@H]2O | A549/TR | µM | 1.51 |
